Tested on: MS2 coat protein
Assay: apparent KD of MS2 coat protein; designed switch direction (-1 OFF switch, 1 ON switch): -1; higher = weaker reporter binding
Conditions: input ligand: microRNA oligo, concentration not stated
Consider the following sequences and their measured apparent KD of MS2 coat protein readings.
observation-type: apparent KD of MS2 coat protein (nM)

input-sequence: AAGAAUCGCAAUACGAAUAAGCAAUACGAACAAUAGCAAACAUGAGGAUCACCCAUGUCAAGGGUGACAACGCUCUA [JR_Sensorv2_tov2_Sub107] (Eterna round: R96, puzzle: Sensor v2, turn-off variant 2)
measured-number: 61.2
//
input-sequence: CGGCUACGAUGAGGAUAUACGCACAUGAGGAUCACCCAUGUAAAUCACGGGUAAAGAUCGCCAUCGUAGAAGGCAUAAGGGCCC [Orsole] (Eterna round: R96, puzzle: Exclusion NG 2)
measured-number: 49.6
//
input-sequence: ACAUGUCAUCGAGGAUAUUGUACACAUGAGGAUCACCCAUGUACUCGGUUGCUCUAGCAUGCGUUCGAGAAGGCGAUGUACAUU [Ex NG2 #98] (Eterna round: R96, puzzle: Exclusion NG 2)
measured-number: 88.8
//
input-sequence: CCGGUUGGCGCAGGAUAUACAUGAGGAUCACCCAUGUUCAUGAGGAUCAUCCAUGAGUUUUUGUUGUAGAAGGGUGGCCCGGCC (Eterna round: R96, puzzle: Exclusion NG 2)
measured-number: 60.8

###

Test system: MS2 coat protein
Assay: apparent KD of MS2 coat protein; higher = weaker reporter binding
Settings: Eterna round: R107; input ligand: theophylline 20 uM
We use 200 nM as the dividing line for apparent KD of MS2 coat protein: on or above the line is 1, below is 0.

input-sequence: GGGAAUGAACGUGAUACCAGAGAUCCGGUCUCCGUCAAUAUACAUGAGGAUCACCCAUGUCUCCCUUGGCAGCACCGUCAUCGGG [Exclusion Theophylline B GF 28]
cat: 0
//
input-sequence: GUAUACAUGAGGAUCACCCAUGUACCAGAAGGAGCGCUGGAAACAGCAGGUAGGUCGCUGGUAGGUCCUCUAUCUAGACGUUCGG [EAA NP+V+V2 #4]
cat: 0
//
input-sequence: GCAUCCUAGUCGGCCGCCACUGCAAUUGUAAUACUGCUACAUGAGGAUCACCCAUGUCCAUGUAGCAGGACCGGGACUAGGAUGC [SS Tryp B #16]
cat: 1
//
input-sequence: AAUUCCUAACAUGAGGAUCACCCAUGUGAAGGAGCGCGGAAUAACGCAGGUAGGUCGCACAUGGAACCGCUGCGAUAGCAGCAAA [MAT - Exclusion Arginine A - Mod of Eli - D29]
cat: 0
//
input-sequence: AAAAUAAAUAAAACACGUAACAUGAAGGAUACCAGCCAGAAAACUGGCCCUUGGCAGCCUCUACAUGAGGAUCACCCAUGUCGUG [Mat - Same State Theophlline A - Mod of Eli - D16]
cat: 0

###

Test system: MS2 coat protein
Test: apparent KD of MS2 coat protein; higher = weaker reporter binding
Details: Eterna round: R107; input ligand: theophylline 20 uM

input-sequence: CCAUGGCUAGGAAGGAGCGCAUACUUCACAUGAGGAUCACCCAUGUCGAGACGUGAGUCAGUGCAGGUAGGUCGCCUAGCCAUGG [Same State - Arginine B (Freestyle 30)]
apparent KD of MS2 coat protein (nM): 29.2
//
input-sequence: GGCACAUGUGGAAGGAGCGUCGUACGAGCUACAUGAGGAUCACCCAUGUCGGUUAGUGUCCGACAGGUAGGUCGCCACAUUUAAC [Isiser]
apparent KD of MS2 coat protein (nM): 235
//
input-sequence: AGAUUCGACACGGCCGCCACUUGUGGUGGAUUAUCCUGUGUCGAACAUGAGGAUCACCCAUGUACAAGGACCGGGUGUUGAGUCU [XTryp B #20]
apparent KD of MS2 coat protein (nM): 151
//
input-sequence: GAACAUAAGGAUAGUAUAAUGACUACAGAAGGAGCGUCAGGAAGGACAGGUAGGUCGCUGGAAGACAUGAGGAUCACCCAUGUUU [Arg A SS t2]
apparent KD of MS2 coat protein (nM): 35.3
//
input-sequence: CUGCCAUGCAGAGAUACCAGUGCGCUCAGCACAUGAGGAUCACCCAUGUCGGCUGCCGAUCACCCUUGGCAGCUCUGCAUGGCAG [?@#$_]
apparent KD of MS2 coat protein (nM): 13
//
input-sequence: UGGGAAGGAGGAAGGAGCGCCAUAAGGGUGACAGUCUGGGUACAUGAGGAUCACCCAUGUAGGCAGGUAGGUCGCCUAGCUCUCA [XArg-B16]
apparent KD of MS2 coat protein (nM): 12.9
//
input-sequence: CUCCCGUGGUCGGCCGCCACUGGAGGCCUUGCGCGACAUGAGGAUCACCCAUGUGGGCCCGGCGUCAGGACCGGGAUCGCGUGAG [#1 Same State - Tryptophan B Attempt #11 (HarryS)]
apparent KD of MS2 coat protein (nM): 20.2
//
input-sequence: UUAAUCAUAUAUGAAAACAUAUAUGCAGAAGGAGCGUGAUAAAACACAGGUAGGUCGCUGAAGGGAACAUGAGGAUCACCCAUGU [AstrosSSArgA#2]
apparent KD of MS2 coat protein (nM): 49
//
input-sequence: ACUGACUUUACGGCCGCCACUCAUUGGCACGUGUCAUGUCAACAUGAGGAUCACCCAUGUAUGAUGAGGACCGGGUAAGGGCUGC [theeternabot_exclusion_MS2_Trp_B_2]
apparent KD of MS2 coat protein (nM): 13
//
input-sequence: CCUGAUAACUGAAGGAGCGAGAAACCCUACAUGAGGAUCACCCAUGUAUACACGGGAACUUCUCAGGUAGGUCGCAGUUUGUCAG [Adiso]
apparent KD of MS2 coat protein (nM): 165
//
input-sequence: GUCACACAGUAGGAUACCAGCGUGGCUUAUCCCUGAUCGUACAUGAGGAUCACCCAUGUCCGCCCUUGGCAGCCUCCUGCUCGGA [theeternabot_exclusion_MS2_Theo_B_33]
apparent KD of MS2 coat protein (nM): 17.7
//
input-sequence: UGUUUGGUGCGCGAGUGUUGGAUAAUUGAUACCAGUGUAGAUGUACGCCCUUGGCAGCGAAUCCGAACAUGAGGAUCACCCAUGU [5.aA]
apparent KD of MS2 coat protein (nM): 45.6
//
input-sequence: GCUGGGUGCGCAAGGACCUGGCGUUGCGAUACCAGCACGGUAACGUGCCCUUGGCAGCGCACAUGAGGAUCACCCAUGUGGUGCG [#1 Exclusion - Theophylline A Attempt #21 (HarryS)]
apparent KD of MS2 coat protein (nM): 45.8
//
input-sequence: CCAUGCAGGUCGGCCGCCACUACACACAUGAGGAUCACCCAUGUAGUUACUGGGUGAAGUGGCAGUAGGACCGGGACCUGCACAU [Brourdmod19]
apparent KD of MS2 coat protein (nM): 326
//
input-sequence: UAACGGCACUGAAGGAGCGAGUUGACAAACAUGAGGAUCACCCAUGUUAUGGGUUGUUAAUCUCAGGUAGGUCGCAGUUGUCGUA [Same State Arginine B GF 20]
apparent KD of MS2 coat protein (nM): 387

###

Listed next: entries and their corresponding apparent KD of MS2 coat protein.
Tested on: MS2 coat protein
Assay: apparent KD of MS2 coat protein; designed switch direction (-1 OFF switch, 1 ON switch): 1; higher = weaker reporter binding
Details: Eterna round: R95; input ligand: FMN 200 uM

input-sequence: GUACUACAUGAGGAUCACCCAUGUUACCUUCACGGAGGAUAUAGGAAAUGAGGUGAGAUGCUAGAAGGCCGAGGAA [Candy Rainbow 4] (puzzle: Same State 1)
apparent KD of MS2 coat protein [nM]: 102
--
input-sequence: UUCUCUUUUUAGAGACAAGCUUUUUGAUCACAUGAGGAUCACCCAUGUCUCGUCUUAUGAUUUACUUCGUUAUUUCU [BA Sensor hsa-mir-208a - 2 - 6] (puzzle: Sensor for hsa-mir-208a)
apparent KD of MS2 coat protein [nM]: 160
--
input-sequence: AUCUCUGUGCCGCAGGAUAUACCAACGGCUACAUGAGGAUCACCCAUGUCAUACCGUCGAAAGUGGUAGAAGGGUGUGCACGAGC [Reteonar] (puzzle: Same State 2)
apparent KD of MS2 coat protein [nM]: 17.7
--
input-sequence: AGUCCAGCCUGAGCUGGACAAAGACAUGUACAUGAGGAUCACCCAUGUCAUGUACAAGUUUUUUGCUCGUCUUAUAA (puzzle: Sensor for hsa-mir-208a)
apparent KD of MS2 coat protein [nM]: 36.7
--
input-sequence: GGUCCAGCCUGAGCUGGACAAAAGCAUGUACAUGAGGAUCACCCAUGUCAUGUACAAGCUUUUUGCUCGUCAGAAAG [Mat - hsa-mir-208a - 98] (puzzle: Sensor for hsa-mir-208a)
apparent KD of MS2 coat protein [nM]: 62.7
--
input-sequence: ACAAGCUUUUUAGGAGAGAAAGGUGGGAAACAUGAGGAUCACCCAUGUAUGGUAGUGAAUAGUGGAACUCGUCUUAU [JR_SHM208A_Sub081] (puzzle: Sensor for hsa-mir-208a)
apparent KD of MS2 coat protein [nM]: 400
--
input-sequence: GCCACACAUGAGGAUCACCCAUGUAAUUACAUGGGAGGAUAUCAGUGCUCGAAAGAGCACUGAGAAGGCCCGUGGC [SS1 - Omei A v4] (puzzle: Same State 1)
apparent KD of MS2 coat protein [nM]: 120
--
input-sequence: AUAAGUUUGAUGCUCGUCUCUCCGUACUAACAUGAGGAUCACCCAUGUGGUCGGGAAGUAGCCCGGCCAGUAUGGCC [Lequteti] (puzzle: Sensor for hsa-mir-208a)
apparent KD of MS2 coat protein [nM]: 19.5
--
input-sequence: UGGAUCUAGGCUUGCCUGGGUCCUUGUUGACAUGAGGAUCACCCAUGUGUUUUUUUUUUGCUUUUUGUUUGUCAACA [JL A Humble Attempt mod 1] (puzzle: Sensor for hsa-mir-208a)
apparent KD of MS2 coat protein [nM]: 20.8
--
input-sequence: GUAGAAUAACUAGAGGAUAUCCGAGUGGUAACAUGAGGAUCACCCAUGUGAUGAAAGGAACAUGAGGAGAAGGCUAGAAGUAAUG [Mat - Same State 2 - Mod of JL - D81] (puzzle: Same State 2)
apparent KD of MS2 coat protein [nM]: 17.5
--
input-sequence: UCUUGGUUUUUGCUCGUUUUUUGUGUUGAACAUGAGGAUCACCCAUGUAUUGUACGGUCCAGUUUGGUAAUGGUCCG [JMF 35] (puzzle: Sensor for hsa-mir-208a)
apparent KD of MS2 coat protein [nM]: 25
--
input-sequence: GAAAAGGCGACGCAGGAUAUGAAAGGUGAAACAUGAGGAUCACCCAUGUGCUACCUUCCGAUAAAUCAGAAGGGCGACGCCAAGC [Soleusat] (puzzle: Same State 2)
apparent KD of MS2 coat protein [nM]: 9.79
--
input-sequence: UGGUAACAUGAGGAUCACCCAUGUCAAAUGAAUCAAGGAUAUGGGAAAGGAGAAGAGAAACCAGAAGGUGAGGUUG [Altered State 1-15 - Jieux - Same State 1] (puzzle: Same State 1)
apparent KD of MS2 coat protein [nM]: 108
